Test: PPB assay by ultrafiltration, dog plasma
Format: in vitro ADME, beagle dogs
Conditions: beagle, 150 ng/mL, read-out: Percentage of ammoxetine-protein binding rate (%) (converted)

molecular.string	fraction unbound at 1 h, 150 ng/mL
CNCC[C@H](Oc1cccc2c1OCO2)c1cccs1	0.468

* * *

Assay: PPB assay by ultrafiltration, human plasma
Assay type: in vitro ADME, humans
Settings: approximate range over 50-450 ng/mL, read-out: PPB rate

molecular.string	fraction unbound at 1 h
CNCC[C@H](Oc1cccc2c1OCO2)c1cccs1	0.4 to 0.5

* * *

Target: CYP 2C9 (Homo sapiens)
Sequence (P11712 whole entry): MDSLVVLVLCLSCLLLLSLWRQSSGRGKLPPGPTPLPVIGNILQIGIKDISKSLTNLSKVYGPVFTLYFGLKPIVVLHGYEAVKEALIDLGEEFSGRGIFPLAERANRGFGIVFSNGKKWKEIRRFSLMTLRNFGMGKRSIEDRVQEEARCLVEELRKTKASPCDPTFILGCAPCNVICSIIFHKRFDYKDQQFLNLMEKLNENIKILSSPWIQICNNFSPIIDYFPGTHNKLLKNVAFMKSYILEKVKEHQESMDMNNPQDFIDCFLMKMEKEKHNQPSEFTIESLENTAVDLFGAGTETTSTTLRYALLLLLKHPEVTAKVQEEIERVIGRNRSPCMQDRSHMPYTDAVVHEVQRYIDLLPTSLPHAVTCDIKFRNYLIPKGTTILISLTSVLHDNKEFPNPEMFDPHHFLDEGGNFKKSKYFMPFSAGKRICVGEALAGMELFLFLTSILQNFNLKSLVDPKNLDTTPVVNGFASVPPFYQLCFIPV
Assay: CYP inhibition, cocktail-substrate method in HLM
Format: in vitro ADME
Parameters: 0.5 mg/mL HLM, 1 mmol/L NADPH, and a cocktail of 10 probe substrates for 9 CYP isoforms; tissue BD (Woburn, USA); host or cells: pooled human liver microsomes
Details: probe tolbutamide
pIC50: −log10 of the molar value.

compound	pIC50
CNCC[C@H](Oc1cccc2c1OCO2)c1cccs1 [ammoxetine]	< 4.00

* * *

Assay: PK studies in beagle dogs
Assay type: in vivo
Conditions: beagle, dog, plasma, po, 5 mg/kg, beagle dogs, 5 mg/kg oral every 12 h, last time of multiple administrations
experimental.readout: AUC(0-inf) (ng·h/mL)

molecular.string	value.measured
CNCC[C@H](Oc1cccc2c1OCO2)c1cccs1	5000

* * *

Experiment: PK study in rats
Type: in vivo, SD rats
Settings: SD, rat, plasma, 20 mg/kg single oral dose, read-out: t1/2z (converted)

molecular.string	value.unit	half-life
CNCC[C@H](Oc1cccc2c1OCO2)c1cccs1	h	5.61

* * *

Assay: PK study in rats
Assay type: in vivo, SD rats
Conditions: SD, rat, plasma, 50 mg/kg single oral dose

molecular.string	AUC(0-inf), ng·h/mL
CNCC[C@H](Oc1cccc2c1OCO2)c1cccs1	12900

* * *

Assay: PK study in rats
Format: in vivo, SD rats
Conditions: SD, rat, plasma, 8 mg/kg single oral dose, read-out: Vz/F
experimental.readout: Vd/F

molecular.string	experimental.readout	value.measured
CNCC[C@H](Oc1cccc2c1OCO2)c1cccs1	Vd/F	24.4 L/kg

* * *

Test: Tissue distribution study in rats
Format: in vivo
Conditions: rat, fat, po, 20 mg/kg, 20 mg/kg oral, fat, read-out: AUC(0→t),tissue/AUC(0→t),blood

molecular.string	Kp
CNCC[C@H](Oc1cccc2c1OCO2)c1cccs1	14.2

* * *

Assay: Tissue distribution study in rats
Type: in vivo
Settings: rat, testis, po, 20 mg/kg, 20 mg/kg oral, testis, read-out: AUC(0→t),tissue/AUC(0→t),blood
experimental.readout: Kp

molecule	value.measured
CNCC[C@H](Oc1cccc2c1OCO2)c1cccs1 [ammoxetine]	27.3

* * *

Assay: PK studies in beagle dogs
Assay type: in vivo
Settings: male, beagle, dog, plasma, po, 2 mg/kg, beagle dogs, 2 mg/kg single oral dose; read-out: MRT(0-∞)
experimental.readout: MRT inf (h)

molecular.string	value.unit	value.measured
CNCC[C@H](Oc1cccc2c1OCO2)c1cccs1	h	3.08

* * *

Test: PK studies in beagle dogs
Assay type: in vivo
Conditions: male, beagle, dog, plasma, po, 12.5 mg/kg, beagle dogs, oral 2, 5 and 12.5 mg/kg; read-out: Tmax values, range
experimental.readout: Tmax

molecular.string	value.measured
CNCC[C@H](Oc1cccc2c1OCO2)c1cccs1	0.75 to 1.4 h

* * *

Experiment: PK studies in beagle dogs
Assay type: in vivo
Settings: male, beagle, dog, plasma, po, 5 mg/kg, beagle dogs, 5 mg/kg oral every 12 h, last time of multiple administrations
experimental.readout: Cmax (ng/mL)

molecular.string	value.measured
CNCC[C@H](Oc1cccc2c1OCO2)c1cccs1	761

* * *

Assay: Tissue distribution study in rats
Type: in vivo
Details: rat, spleen, po, 20 mg/kg, 20 mg/kg oral, spleen, read-out: AUC(0→t),tissue/AUC(0→t),blood
experimental.readout: Kp

compound	value.measured
CNCC[C@H](Oc1cccc2c1OCO2)c1cccs1 [ammoxetine]	46

* * *

Test: Bidirectional permeability measurements in MDCK-MDR1 monolayers
Assay type: in vitro ADME, canine
Conditions: dog, MDCK-MDR1; 0.2 μg/mL, 2 h

compound	value.unit	Papp A→B at 2 h, 0.2 μg/mL
CNCC[C@H](Oc1cccc2c1OCO2)c1cccs1 [ammoxetine]	×10⁻⁶ cm/s	15.8

* * *

Experiment: PK study in rats
Format: in vivo, SD rats
Settings: SD, rat, plasma, 50 mg/kg single oral dose, read-out: MRT(0-∞)

molecule	MRT inf, h
CNCC[C@H](Oc1cccc2c1OCO2)c1cccs1 [ammoxetine]	11.8

* * *

Experiment: PK studies in beagle dogs
Assay type: in vivo
Settings: male, beagle, dog, plasma, iv, 2 mg/kg, beagle dogs, 2 mg/kg intravenous administration

molecular.string	value.unit	AUC(0-inf)
CNCC[C@H](Oc1cccc2c1OCO2)c1cccs1	ng·h/mL	1010

* * *

Assay: PK study in rats
Format: in vivo, SD rats
Conditions: SD, rat, plasma, 50 mg/kg single oral dose
experimental.readout: AUC(0-t) (ng·h/mL)

molecular.string	value.unit	value.measured
CNCC[C@H](Oc1cccc2c1OCO2)c1cccs1	ng·h/mL	11000

* * *

Test: PK studies in beagle dogs
Format: in vivo
Details: dog, plasma; beagle dogs, 5 mg/kg oral every 12 h, last time of multiple administrations

molecular.string	AUC
CNCC[C@H](Oc1cccc2c1OCO2)c1cccs1	4050 ng·h/mL

* * *

Assay: Tissue distribution study in rats
Assay type: in vivo
Settings: rat, lung, po, 20 mg/kg, 20 mg/kg oral, lung, read-out: AUC(0→t),tissue/AUC(0→t),blood
experimental.readout: Kp

molecular.string	experimental.readout	value.measured
CNCC[C@H](Oc1cccc2c1OCO2)c1cccs1	Kp	155

* * *

Experiment: PK studies in beagle dogs
Type: in vivo
Settings: male, beagle, dog, plasma, po, 5 mg/kg, male beagle dogs, 5 mg/kg single oral dose, fasted (first dose); read-out: CLz/F (converted)

compound	value.unit	CL/F
CNCC[C@H](Oc1cccc2c1OCO2)c1cccs1 [ammoxetine]	mL/min/kg	45.2

* * *

Assay: PK study in rats
Format: in vivo, SD rats
Conditions: SD, rat, plasma, 8 mg/kg single oral dose, read-out: t1/2z (converted)
experimental.readout: half-life (h)

molecular.string	value.measured
CNCC[C@H](Oc1cccc2c1OCO2)c1cccs1	2.87

* * *

Experiment: PK studies in beagle dogs
Type: in vivo
Settings: female, beagle, dog, plasma, po, 5 mg/kg, female beagle dogs, 5 mg/kg oral, fasted

molecular.string	AUC(0-t) (ng·h/mL)
CNCC[C@H](Oc1cccc2c1OCO2)c1cccs1	1640

* * *

Assay: PK studies in beagle dogs
Format: in vivo
Conditions: male, beagle, dog, plasma, po, 12.5 mg/kg, beagle dogs, 12.5 mg/kg single oral dose; read-out: MRT(0-t)

molecular.string	MRT last [h]
CNCC[C@H](Oc1cccc2c1OCO2)c1cccs1	5.43

* * *

Experiment: PK studies in beagle dogs
Assay type: in vivo
Details: male, beagle, dog, plasma, po, 12.5 mg/kg, beagle dogs, 12.5 mg/kg single oral dose

compound	Cmax
CNCC[C@H](Oc1cccc2c1OCO2)c1cccs1 [ammoxetine]	1470 ng/mL

* * *

Target: CYP 2B6 (Homo sapiens, UniProt P20813)
Construct: 0.5 mg/mL HLM, 1 mmol/L NADPH, and a cocktail of 10 probe substrates for 9 CYP isoforms; tissue BD (Woburn, USA)
Sequence (P20813 1-491): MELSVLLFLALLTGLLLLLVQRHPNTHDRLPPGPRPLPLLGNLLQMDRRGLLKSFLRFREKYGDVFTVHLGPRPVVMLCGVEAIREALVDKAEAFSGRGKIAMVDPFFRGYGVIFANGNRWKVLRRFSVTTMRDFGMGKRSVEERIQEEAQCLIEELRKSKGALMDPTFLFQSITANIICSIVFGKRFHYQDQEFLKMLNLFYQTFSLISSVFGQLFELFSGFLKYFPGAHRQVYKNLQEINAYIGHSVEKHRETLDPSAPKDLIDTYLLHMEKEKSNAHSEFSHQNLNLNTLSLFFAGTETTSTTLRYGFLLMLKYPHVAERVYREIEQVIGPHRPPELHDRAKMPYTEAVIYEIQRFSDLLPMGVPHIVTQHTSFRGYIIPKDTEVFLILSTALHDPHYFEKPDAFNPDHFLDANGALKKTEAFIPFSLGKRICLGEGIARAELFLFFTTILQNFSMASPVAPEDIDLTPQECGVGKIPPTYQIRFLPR
Test: CYP inhibition, cocktail-substrate method in HLM
Settings: probe bupropion
pIC50: −log10 of the molar value.
experimental.readout: pIC50

compound	tested.on	experimental.readout	value.measured
CNCC[C@H](Oc1cccc2c1OCO2)c1cccs1 [ammoxetine]	CYP 2B6 (Homo sapiens, UniProt P20813)	pIC50	< 4.00

* * *

Experiment: PK studies in beagle dogs
Type: in vivo
Details: male, beagle, dog, plasma, po, 2 mg/kg, beagle dogs, 2 mg/kg single oral dose; read-out: Tmax

molecular.string	Tmax, min
CNCC[C@H](Oc1cccc2c1OCO2)c1cccs1	45

Provenance of the data: paper PMC11579541
